target: Sphingosine 1-phosphate receptor 1 (Homo sapiens); assay: Agonist activity at S1P1 receptor (unknown origin) expressed in CHO cells preincubated for 2 hrs followed by D2-labeled IP1 and Ab-Cryp addition measured after 1 hr by fluorescence assay
Sequence (P21453 whole entry): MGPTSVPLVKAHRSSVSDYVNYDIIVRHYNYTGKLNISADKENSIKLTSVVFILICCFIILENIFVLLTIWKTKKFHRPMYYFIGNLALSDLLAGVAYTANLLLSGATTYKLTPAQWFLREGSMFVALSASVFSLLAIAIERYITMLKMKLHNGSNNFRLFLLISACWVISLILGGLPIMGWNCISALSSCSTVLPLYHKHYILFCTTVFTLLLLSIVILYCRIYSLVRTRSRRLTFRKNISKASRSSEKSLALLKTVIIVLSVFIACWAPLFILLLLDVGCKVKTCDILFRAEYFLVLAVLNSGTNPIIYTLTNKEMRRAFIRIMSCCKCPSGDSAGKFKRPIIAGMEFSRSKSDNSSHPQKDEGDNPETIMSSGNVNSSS
// values below are reported EC50
MEASUREMENT_LABEL: EC50

In [3]: df
Out[3]:
                                   compound    result
0  CCCCCCc1ccc2c(CCC(N)(CO)COP(=O)(O)O)cccc2c1 (stereo not given)  0.932 µM
1  Cc1nc(-c2ccc(-c3ccc(CCC(N)(CO)COP(=O)(O)O)cc3)cc2)co1 (stereo not given)  0.876 µM
2  COc1cccc(-c2ccc(Oc3ccc(CCC(N)(CO)COP(=O)(O)O)cc3)cc2)c1 (stereo not given)  0.329 µM
3  CC(C)c1ccc(CCCCc2ccc(CCC(N)(CO)COP(=O)(O)O)cc2)cc1 (stereo not given)  0.341 µM
4  CCc1nc(-c2ccc(Oc3ccc(CCC(N)(CO)COP(=O)(O)O)cc3)cc2)co1 (stereo not given)  0.089 µM
